Just for reference, ChEMBL document CHEMBL5523741 is where these values come from.

# run description: Volume of distribution at steady state in CD-1 mouse at 3 mg/kg, iv measured up to 24 hrs
# Type: ADME, organism-based
# test conditions: in vivo, read-out: Vdss
recorded metric: Vd (L/kg)
Give the value in L/kg but do not write L/kg after it.

**Query** Identify measured Vd corresponding to Cc1nc(Nc2ncc(C(=O)Nc3c(C)cccc3Cl)s2)cc(N2CCC(CN3CCN(c4ccc(C5CCC(=O)NC5=O)cc4)CC3)CC2)n1 (stereo unspecified)
**Result** 3.51

* * *

# run description: Metabolic stability in mouse liver microsomes assessed as half life in presence of NADPH by UPLC-MS/MS analysis
# Format: ADME, Microsome
Listed below: log10 half-life values for each entry.
// do not treat as linear: log10 of half-life, unit h

Use the examples below as a reference point.
Cc1nc(Nc2ncc(C(=O)Nc3c(C)cccc3Cl)s2)cc(N2CCN(CCCN3CCC4(CC3)CCN(c3ccc(C5CCC(=O)NC5=O)cc3)CC4)CC2)n1 (stereo not drawn)
1.00
Cc1nc(Nc2ncc(C(=O)Nc3c(C)cccc3Cl)s2)cc(N2CCN(CCCC(=O)N3CCC(CN4CCN(c5ccc(C6CCC(=O)NC6=O)cc5)CC4)CC3)CC2)n1 (stereo not drawn)
-0.17
Cc1nc(Nc2ncc(C(=O)Nc3c(C)cccc3Cl)s2)cc(N2CCN(CCCC(=O)N3CCN(c4ccc(C5CCC(=O)NC5=O)cc4)CC3)CC2)n1 (stereo not drawn)
0.03
Cc1nc(Nc2ncc(C(=O)Nc3c(C)cccc3Cl)s2)cc(N2CCN(CCCN3CC4CC3CN4c3ccc(C4CCC(=O)NC4=O)cc3)CC2)n1 (stereo not drawn)
0.41
Cc1nc(Nc2ncc(C(=O)Nc3c(C)cccc3Cl)s2)cc(N2CCN(CCCN3CCN(c4ccc(C5CCC(=O)NC5=O)cc4)CC3)CC2)n1 (stereo not drawn)
0.84

**Query** Identify measured log10 half-life corresponding to Cc1nc(Nc2ncc(C(=O)Nc3c(C)cccc3Cl)s2)cc(N2CCN(Cc3ccc(C4CCC(=O)NC4=O)cc3)CC2)n1 (stereo not drawn)
**Result** 0.09

**Query** Identify measured log10 half-life corresponding to Cc1nc(Nc2ncc(C(=O)Nc3c(C)cccc3Cl)s2)cc(N2CCN(CC3CCN(c4ccc(C5CCC(=O)NC5=O)cc4)CC3)CC2)n1 (stereo not drawn)
**Result** 0.54

**Query** Identify measured log10 half-life corresponding to Cc1nc(Nc2ncc(C(=O)Nc3c(C)cccc3Cl)s2)cc(N2CCN(CCCN3CCC(c4ccc(C5CCC(=O)NC5=O)cc4)CC3)CC2)n1 (stereo not drawn)
**Result** 1.00

* * *

Listed below: solubility at 18 h values for each entry.
# run description: Aqueous solubility of the compound incubated for 18 hrs by UPLC-SQDMS
# Format: physicochemical
# test conditions: buffer
Give the value in µM but do not write µM after it.

Use the examples below as a reference point.
Cc1nc(Nc2ncc(C(=O)Nc3c(C)cccc3Cl)s2)cc(N2CCN(CCCN3CCC(c4ccc(C5CCC(=O)NC5=O)cc4)CC3)CC2)n1 (stereo unspecified)
2.57
Cc1nc(Nc2ncc(C(=O)Nc3c(C)cccc3Cl)s2)cc(N2CCN(CCCN3CCN(c4ccc(C5CCC(=O)NC5=O)cc4)CC3)CC2)n1 (stereo unspecified)
2.08
Cc1nc(Nc2ncc(C(=O)Nc3c(C)cccc3Cl)s2)cc(N2CCN(Cc3ccc(C4CCC(=O)NC4=O)cc3)CC2)n1 (stereo unspecified)
1.99
Cc1nc(Nc2ncc(C(=O)Nc3c(C)cccc3Cl)s2)cc(N2CCN(CCCC(=O)N3CC4CC3CN4c3ccc(C4CCC(=O)NC4=O)cc3)CC2)n1 (stereo unspecified)
0.19
Cc1nc(Nc2ncc(C(=O)Nc3c(C)cccc3Cl)s2)cc(N2CCN(CCCC(=O)N3CCC(CN4CCN(c5ccc(C6CCC(=O)NC6=O)cc5)CC4)CC3)CC2)n1 (stereo unspecified)
0.65
Cc1nc(Nc2ncc(C(=O)Nc3c(C)cccc3Cl)s2)cc(N2CCN(CCCC(=O)N3CCN(c4ccc(C5CCC(=O)NC5=O)cc4)CC3)CC2)n1 (stereo unspecified)
0.15

**Query** Identify measured solubility at 18 h corresponding to Cc1nc(Nc2ncc(C(=O)Nc3c(C)cccc3Cl)s2)cc(N2CCN(CCCC(=O)N3CCC4(CC3)CCN(c3ccc(C5CCC(=O)NC5=O)cc3)CC4)CC2)n1 (stereo unspecified)
**Result** 1.5

**Query** Identify measured solubility at 18 h corresponding to Cc1nc(Nc2ncc(C(=O)Nc3c(C)cccc3Cl)s2)cc(N2CCN(CCN3CCN(c4ccc(C5CCC(=O)NC5=O)cc4)CC3)CC2)n1 (stereo unspecified)
**Result** 1.87

**Query** Identify measured solubility at 18 h corresponding to Cc1nc(Nc2ncc(C(=O)Nc3c(C)cccc3Cl)s2)cc(N2CCN(C(=O)CCCN3CC4CC3CN4c3ccc(C4CCC(=O)NC4=O)cc3)CC2)n1 (stereo unspecified)
**Result** 15.2

**Query** Identify measured solubility at 18 h corresponding to Cc1nc(Nc2ncc(C(=O)Nc3c(C)cccc3Cl)s2)cc(N2CCN(CCCN3CCC4(CC3)CCN(c3ccc(C5CCC(=O)NC5=O)cc3)CC4)CC2)n1 (stereo unspecified)
**Result** 1.4

**Query** Identify measured solubility at 18 h corresponding to Cc1nc(Nc2ncc(C(=O)Nc3c(C)cccc3Cl)s2)cc(N2CCN(CCCN3CCN(Cc4ccc(C5CCC(=O)NC5=O)cc4)CC3)CC2)n1 (stereo unspecified)
**Result** 7.54

* * *

Listed below: Emax values for each entry.
# experimental target: Protein cereblon/Tyrosine-protein kinase Lck (Homo sapiens, UniProt P06239+Q96SW2)
# Sequence (P06239 2-509 limits assumed): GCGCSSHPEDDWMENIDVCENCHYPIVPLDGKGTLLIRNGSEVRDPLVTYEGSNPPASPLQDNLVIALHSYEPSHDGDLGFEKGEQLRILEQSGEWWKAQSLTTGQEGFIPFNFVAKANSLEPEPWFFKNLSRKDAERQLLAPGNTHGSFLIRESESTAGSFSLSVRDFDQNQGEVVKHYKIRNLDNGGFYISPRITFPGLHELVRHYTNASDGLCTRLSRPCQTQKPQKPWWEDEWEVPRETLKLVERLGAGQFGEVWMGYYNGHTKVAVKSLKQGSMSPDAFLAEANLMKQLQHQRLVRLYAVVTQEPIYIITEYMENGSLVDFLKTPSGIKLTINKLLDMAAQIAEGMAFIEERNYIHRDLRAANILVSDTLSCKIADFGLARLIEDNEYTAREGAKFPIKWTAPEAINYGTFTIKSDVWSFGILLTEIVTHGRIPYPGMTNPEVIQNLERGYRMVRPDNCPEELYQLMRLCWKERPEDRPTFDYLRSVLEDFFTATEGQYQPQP
# Sequence (Q96SW2 whole entry partner): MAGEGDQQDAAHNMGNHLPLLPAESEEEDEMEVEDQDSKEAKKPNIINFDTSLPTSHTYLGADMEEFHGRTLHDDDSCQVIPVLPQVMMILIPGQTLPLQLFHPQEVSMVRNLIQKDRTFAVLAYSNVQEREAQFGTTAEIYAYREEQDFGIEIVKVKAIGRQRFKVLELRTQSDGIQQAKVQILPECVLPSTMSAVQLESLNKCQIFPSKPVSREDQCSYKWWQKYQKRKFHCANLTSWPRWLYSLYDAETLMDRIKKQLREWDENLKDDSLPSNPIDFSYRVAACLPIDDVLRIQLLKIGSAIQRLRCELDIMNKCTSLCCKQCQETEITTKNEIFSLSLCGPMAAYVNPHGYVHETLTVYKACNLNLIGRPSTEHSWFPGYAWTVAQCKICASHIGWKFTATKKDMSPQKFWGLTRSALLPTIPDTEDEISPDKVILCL
# run description: PROTAC activity at HiBit-tagged LCK/CRBN in human KOPT-K1 cells assessed as induction of LCK degradation incubated for 6 hrs by Nano-Glo HiBiT assay relative to control
# Type: cell-based

Cc1nc(Nc2ncc(C(=O)Nc3c(C)cccc3Cl)s2)cc(N2CCC(N(C)C3CCN(c4ccc(C5CCC(=O)NC5=O)cc4)CC3)CC2)n1 (stereo not drawn)
< 60%
Cc1nc(Nc2ncc(C(=O)Nc3c(C)cccc3Cl)s2)cc(N2CCN(CC3CCN(c4ccc(C5CCC(=O)NC5=O)cc4)CC3)CC2)n1 (stereo not drawn)
< 60%

Turning now to a further molecule:
**Query** Identify measured Emax corresponding to Cc1nc(Nc2ncc(C(=O)Nc3c(C)cccc3Cl)s2)cc(N2CCN(CCCN3CCN(Cc4ccc(C5CCC(=O)NC5=O)cc4)CC3)CC2)n1 (stereo not drawn)
**Result** 84%
